test: NCI Yeast Anticancer Drug Screen. Data for the mlh1 rad18 strain (AID 175); details: S. cerevisiae mlh1 rad18 strain growth inhibition; at 50.0 µM
This is part of a sample that, as a whole, favours compounds with a hit. Of some 79,000 tested, about 15% had one in any assay. Activity calls are given as the source filed them. Rule as the data show it: active = growth inhibition above about 70%; inactive = the rest.
Your answer must be one of the following: t (active), f (inactive)

Below, 6 compounds whose answers are already recorded.
>>> answer_label("CC(C)N=C1NS(=O)(=O)c2ccccc21")
"f"
>>> answer_label("CC[N+]1=C(/C=C\\c2cc(C)c3cccnc3c2O)C(C)(C)c2ccccc21")
"f"
>>> answer_label("Cc1ccc2c(c1)C(=O)N(CC[P+](c1ccccc1)(c1ccccc1)c1ccccc1)C2=O")
"f"
>>> answer_label("O=[N+]([O-])c1ccc(-n2ncc3cccnc32)c([N+](=O)[O-])c1")
"t"
>>> answer_label("O=C1CC(c2ccccc2)C(=O)N2C(=O)CC(c3ccccc3)C(=O)N12 (stereo not given)")
"f"
>>> answer_label("COC(=O)C12Oc3ccc(-c4ccc5c(c4O)C(O)=C4C(=O)CC(C)C(O)C4(C(=O)OC)O5)c(O)c3C(O)=C1C(=O)CC(C)C2O (stereo not given)")
"t"

**Query** Assay outcome for "CCCCCCCCCCCCCCSC(=NC)NC" : what was it?
**Result** t

**Query** Hi team, can someone confirm the assay call for "Nc1ccccc1SCc1csc(-c2ccc(Cl)cc2)n1" ?
**Result** t

**Query** Could you kindly confirm the outcome this assay logged for "COc1ccc(OC)c(C(Cc2ccnc3ccccc23)Cc2ccnc3ccccc23)c1" ?
**Result** t

**Query** Entry "Clc1ccc2nc3c(c(N4CCOCC4)c2c1)CCCC3" : call = ?
**Result** t

* * *

assay: NCI Yeast Anticancer Drug Screen. Data for the cln2 rad14 strain (AID 165);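 also: 0% = growth equal to vehicle treated cultures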; details: S. cerevisiae cln2 rad14 strain, at 50.0 µM
Compounds without any hit were thinned out: in the full panel of roughly 79,000, 15% have a hit. The source made the active and inactive calls. Cut-off read from the data, not from the text of the source: active = growth inhibition above about 70%; inactive = the rest.
Tick one outcome: TRUE (active), FALSE (inactive)

>>> answer_label("O=C1c2ccccc2C(=O)c2sc(Nc3cccc(Cl)c3)nc21")
"TRUE"
>>> answer_label("Cc1occc1C(=S)Nc1ccc(Cl)c(C(=O)OC(C)C2CC2)c1 (configuration not stated)")
"TRUE"
>>> answer_label("CC[N+]1(C)CCC(O)(/C=C/c2ccccc2)C(C(=O)/C=C/c2ccccc2)C1 (configuration not stated)")
"TRUE"

**Query** Each compound tested received a call. Report the one for "COc1ccc(C(=O)Nc2ccc(O)c(=O)cc2)cc1" .
**Result** FALSE

**Query** // return assay outcome for "CC(=O)Nc1ccc(-c2cnc3ccccc3c2)cc1"
**Result** FALSE

**Query** // return assay outcome for "O=C1OC2(Cc3ccccc31)c1ccccc1-c1ccccc12"
**Result** FALSE

**Query** # lookup: test call for "N#CSc1cc(SC#N)c2ccccc2c1N"
**Result** FALSE

**Query** Recorded test outcome, item "CC(C)(C)c1ccc(O)c(C2CCCCC2)c1"
**Result** TRUE

* * *

Quick reference for growth inhibition among some compounds
experiment: NCI Yeast Anticancer Drug Screen. Data for the cln2 rad14 strain (AID 165);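 also: 0% = growth equal to vehicle treated cultures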; conditions: S. cerevisiae cln2 rad14 strain, at 50.0 µM, active compounds read high
This is part of a sample that, as a whole, favours compounds with a hit. Of some 79,000 tested, about 15% had one in any assay.
Number only, in %; omit the unit.

Sure, the documented growth inhibition for "N=C(N)c1ccc(Nc2ccc(-c3cc4ccc(C(=N)N)cc4[nH]3)cc2)cc1" is 98.3
